Kindly supply the reported Kd values for the records listed here.
target: biotinylated recombinant human CLL-1 extracellular domain protein, isoform with lysine at amino acid position 244 (human) (UniProt Q5QGZ9); assay: Exp 1 (= Octet, CLL-1-K244 of FIG. 12B)
Sequence (Q5QGZ9 65-265): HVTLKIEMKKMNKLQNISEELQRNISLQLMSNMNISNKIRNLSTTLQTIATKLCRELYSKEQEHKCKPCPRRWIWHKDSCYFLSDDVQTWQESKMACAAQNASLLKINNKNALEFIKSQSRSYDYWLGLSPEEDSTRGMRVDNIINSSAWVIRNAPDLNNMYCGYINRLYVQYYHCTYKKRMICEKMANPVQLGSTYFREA
Write the value in nM as a bare number.

input: Entry Anti-CLL-1 Binder Clone 40 (scFv, not shown: small tags and cut ends) scFv: QSVLTQPPSVSAAPGQKVTISCSGSSSNIGNNYVSWYQQLPGTAPKLLIYDNNKRPSGIPDRFSGSESGTSATLGITGLQTGDEADYYCGTWDSSLSAWVFGGGTQLIILGGGGSGGGGSGGGGSQVQLQQSGPGLVKPSQTLSLTCAISGDSVSSNSAAWNWIRQSPSRGLEWLGRTHYRSKWYNDYAVSVKSRITISADTSKNQFSLQLNSVTPEDTAVYYCARDRYTVRPDAFDIWGQGTTVTVSS has what Kd?
output: 8.35

input: Entry Anti-CLL-1 Binder Clone 10 (scFv, not shown: small tags and cut ends) scFv: DIQMTQSPSFLSASVGDRVTITCRASQGISSYLAWYQQKPGKAPKLLIYSASSLQSGVPSRFSGSGSGTDFTLTISSLQPEDFATYYCQQSYNSPTFGQGTRLEIKGGGGSGGGGSGGGGSQVQLVQSGAEVKKPGASVKVSCKASGYTFTGYYMHWVRQAPGQGLEWMGWMNPNSGNTGYAQKFQGRVTMTRNTSISTAYLELTSLTSDDTAVYYCARGDTGDFFDHWGQGTLVTVSS has what Kd?
output: 2.61

input: Entry Anti-CLL-1 Binder Clone 11 (scFv, not shown: small tags and cut ends) scFv: QSVLTQPASVSGSPGQSITISCTGTSSDVGASNSVSWYQRHPGKPPKLMIYDVSNRPSGISNRFSGSKSGNTASLTISGLQSEDEADYYCSSYTGSSTFVVFGGGTQLIILGGGGSGGGGSGGGGSEVQLVESGGGVVQPGGSLRLSCAASGFTFSSYWMSWVRQAPGKGLEWVANIRQDGSEKYYVDSVKGRFTISRDNAKNSLYLQMNSLRAEDAAVYYCAREQDTAMVAFDYWGQGTLVTVSS has what Kd?
output: 16.6

input: Entry Anti-CLL-1 Binder Clone 38 (scFv, not shown: small tags and cut ends) scFv: DIQMTQSPSTLSASVGDRVTITCRASQSISSWLAWYQQKPGKAPKLLIYTASSLQSGVPSRFSGSESGTDFTLTISSLQPEDFATYYCQQSYSTPLTFGGGTKVDIKGGGGSGGGGSGGGGSQVQLVQSGAEVKKPGASVKVSCKASGYTFTGYYMHWVRQAPGQGLEWMGWINPNSGGTNYAQKFQGRVTLTRDTSITTAYLELTSLTSDDTAVYYCARGDTGDFFDHWGQGTLVTVSS has what Kd?
output: 1.74
